Tested Target: Inadl_5, Q8NI35
Sequence (Q8NI35 673-780): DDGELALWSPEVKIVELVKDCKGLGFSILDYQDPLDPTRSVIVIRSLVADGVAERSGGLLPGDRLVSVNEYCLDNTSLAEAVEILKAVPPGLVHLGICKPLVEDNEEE
Procedure Text: holdup assay
Set-up: key: below the threshold = too weak to quantify, mostly under pKd 3.1 to 4
Experimental Setup: plain residues with an end cap or a label only (N-terminal biotin on a linker: ado-ado)
Readout Name: pKd

[[record]]
binder = "FVFESRKEIL [TBPL1, P62380]"
readout_value = "below the threshold"

[[record]]
binder = "PAALPESTHM [SLC9A3, P48764]"
readout_value = "below the threshold"

[[record]]
binder = "IGHEDLETAV [DGKI, O75912]"
readout_value = "below the threshold"

[[record]]
binder = "PLATCDETSI [SEMA4F, O95754]"
readout_value = "below the threshold"


What measured pKd goes with HLSTRQGTCV [ATRNL1, Q5VV63] ?
4.04

What measured pKd goes with NISARRFTLC [FAM167B, Q9BTA0] ?
below the threshold

Reference source: paper PMC9482650
